Biological target: Brd4 bromodomain 1 (BRD4(1)) (Homo sapiens)
Test: Inhibition of tetra-acetylated histone H4 binding to BET bromodomain (HTRF/FRET)
Conditions: His-tagged bromodomain 200 nM, tetra-acetylated histone H4 peptide, 2 h room temperature
Measured IC50 by item

Would you please look over these solved cases?
[
  {
    "Compound": "Cc1noc(C)c1-c1c[nH]c(=O)c(NCc2nc3ccccc3[nH]2)c1 [Example 38]",
    "Meas Value": "300 to 3000 nM"
  },
  {
    "Compound": "Cc1noc(C)c1-c1c[nH]c(=O)c(Nc2ccc(Cl)cc2)c1 [Example 29]",
    "Meas Value": "300 to 3000 nM"
  },
  {
    "Compound": "Cc1noc(C)c1-c1c[nH]c(=O)c(NCc2cccnc2)c1 [Example 23]",
    "Meas Value": "≤ 300 nM"
  },
  {
    "Compound": "Cc1noc(C)c1-c1c[nH]c(=O)c(NCc2ccccc2)c1 [Example 4]",
    "Meas Value": "≤ 300 nM"
  }
]

From here, focus on the item given below.
Which value of IC50 has been reported for Cc1noc(C)c1-c1c[nH]c(=O)c(NCc2ccc(C#N)cc2)c1 [Example 9] in the records?
≤ 300 nM

---

Parameter pIC50: see the listing below.
Target: Brd4 bromodomain 1 (BRD4(1)) (Homo sapiens)
Assay: Inhibition of tetra-acetylated histone H4 binding to BET bromodomain (HTRF/FRET)
Conditions: His-tagged bromodomain 200 nM, tetra-acetylated histone H4 peptide, 2 h room temperature
pIC50: −log10 of the molar value.

The examples below pair each entry with its known result.
[
  {
    "Record Smiles": "Cc1noc(C)c1-c1c[nH]c(=O)c(Oc2ccccc2)c1",
    "Meas Value": "5.52 to 6.52"
  },
  {
    "Record Smiles": "Cc1noc(C)c1-c1c[nH]c(=O)c(NCc2ccsc2)c1",
    "Meas Value": "≥ 6.52"
  },
  {
    "Record Smiles": "Cc1noc(C)c1-c1c[nH]c(=O)c(NCc2ccc(C#N)s2)c1",
    "Meas Value": "≥ 6.52"
  },
  {
    "Record Smiles": "Cc1noc(C)c1-c1c[nH]c(=O)c(NCCc2ccccc2)c1",
    "Meas Value": "5.52 to 6.52"
  }
]

Looking for the measured pIC50 of `Cc1noc(C)c1-c1c[nH]c(=O)c(NCc2nc3ccccc3s2)c1` , can you help?
5.52 to 6.52

Could you do the same for `Cc1noc(C)c1-c1c[nH]c(=O)c(OCc2ccccn2)c1` , please?
5.52 to 6.52

Similarly, `Cc1noc(C)c1-c1c[nH]c(=O)c(OCc2ccc(F)cc2)c1` ?
5.52 to 6.52

Another: `Cc1noc(C)c1-c1c[nH]c(=O)c(NCc2ccc(C(F)(F)F)cc2)c1`
5.52 to 6.52

Next: `Cc1noc(C)c1-c1c[nH]c(=O)c(NCc2ccncc2)c1`
5.52 to 6.52

---

Entries annotated with measured pIC50
Biological target: Brd4 bromodomain 1 (BRD4(1)) (Homo sapiens, UniProt O60885)
Assay: Inhibition of tetra-acetylated histone H4 binding to BET bromodomain (HTRF/FRET)
Conditions: His-tagged bromodomain 200 nM, tetra-acetylated histone H4 peptide, 2 h room temperature
pIC50: −log10 of the molar value.

[
  {
    "Record Smiles": "Cc1noc(C)c1-c1c[nH]c(=O)c(Nc2cccnc2)c1",
    "pIC50": "4.52 to 5.52"
  },
  {
    "Record Smiles": "Cc1noc(C)c1-c1c[nH]c(=O)c(Nc2ccccc2)c1",
    "pIC50": "5.52 to 6.52"
  }
]

Then there is this molecule:
Could you share which pIC50 value was measured for `COc1cccc(Nc2cc(-c3c(C)noc3C)c[nH]c2=O)c1` ?
5.52 to 6.52

---

Biological target: Brd4 bromodomain 1 (BRD4(1)) (Homo sapiens, UniProt O60885)
Assay: Inhibition of tetra-acetylated histone H4 binding to BET bromodomain (HTRF/FRET)
Settings: His-tagged bromodomain 200 nM, tetra-acetylated histone H4 peptide, 2 h room temperature
Reported Metric: IC50

[
  {
    "Compound": "Cc1noc(C)c1-c1c[nH]c(=O)c(N[C@@H](C)c2ccccn2)c1 (single isomer, unassigned) [Example 41]",
    "Meas Value": "≤ 300 nM"
  },
  {
    "Compound": "Cc1noc(C)c1-c1c[nH]c(=O)c(NCc2ccc(F)cc2)c1 [Example 21]",
    "Meas Value": "≤ 300 nM"
  },
  {
    "Compound": "Cc1ncccc1Oc1cc(-c2c(C)noc2C)cnc1O [Example 43]",
    "Meas Value": "300 to 3000 nM"
  }
]

Return IC50 measured with Brd4 bromodomain 1 (BRD4(1)) (Homo sapiens, UniProt O60885) given this compound: Cc1noc(C)c1-c1c[nH]c(=O)c(N[C@H](C)c2ccccn2)c1 (single isomer, unassigned) [Example 42]
≤ 300 nM

Next up: Cc1noc(C)c1-c1c[nH]c(=O)c(NCc2ccc3ccccc3c2)c1 [Example 33]
300 to 3000 nM

Could you do the same for Cc1noc(C)c1-c1c[nH]c(=O)c(Nc2cccc(F)c2)c1 [Example 3] , please?
300 to 3000 nM

Please answer likewise for Cc1noc(C)c1-c1c[nH]c(=O)c(NC(C)c2ccc(Cl)cc2)c1 (centres unmarked) [Example 18]
300 to 3000 nM

Item: Cc1noc(C)c1-c1c[nH]c(=O)c(NCc2cccc3ncccc23)c1 [Example 39]
≤ 300 nM

---

Target: Brd4 bromodomain 1 (BRD4(1)) (Homo sapiens, UniProt O60885)
Test: Inhibition of tetra-acetylated histone H4 binding to BET bromodomain (HTRF/FRET)
Settings: His-tagged bromodomain 200 nM, tetra-acetylated histone H4 peptide, 2 h room temperature
pIC50: −log10 of the molar value.
pIC50: recorded values

[
  {
    "Record Smiles": "Cc1noc(C)c1-c1c[nH]c(=O)c(OCc2ccccc2)c1",
    "Assayed Target": "Brd4 bromodomain 1 (BRD4(1)) (Homo sapiens, UniProt O60885)",
    "Meas Value": "5.52 to 6.52"
  },
  {
    "Record Smiles": "Cc1noc(C)c1-c1c[nH]c(=O)c(NCc2nccs2)c1",
    "Assayed Target": "Brd4 bromodomain 1 (BRD4(1)) (Homo sapiens, UniProt O60885)",
    "Meas Value": "≥ 6.52"
  },
  {
    "Record Smiles": "Cc1noc(C)c1-c1c[nH]c(=O)c(NCc2ncccc2Cl)c1",
    "Assayed Target": "Brd4 bromodomain 1 (BRD4(1)) (Homo sapiens, UniProt O60885)",
    "Meas Value": "5.52 to 6.52"
  }
]

Using the record for `Cc1cccc(Nc2cc(-c3c(C)noc3C)c[nH]c2=O)c1` , report its pIC50.
≥ 6.52

How about `Cc1noc(C)c1-c1c[nH]c(=O)c(-c2c(C)noc2C)c1` ?
4.52 to 5.52

---

Tested on: c-myc in Human AML MV4-11 cells
Test: Inhibition of cMYC expression in cancer cell lines (mRNA, real-time PCR)
Type: cell-based
Conditions: Homo sapiens, 3 h, cMYC mRNA normalized to Cyclophilin
Reported Metric: IC50

Fill in the blank: the reported IC50 of Cc1noc(C)c1-c1c[nH]c(=O)c(NCc2nc3ccccc3s2)c1 [Example 40] is ____.
300 to 3000 nM

What about this compound? Cc1noc(C)c1-c1c[nH]c(=O)c(Nc2ccccc2)c1 [Example 1]
3000 to 30000 nM

Moving on to the next compound: Cc1noc(C)c1-c1c[nH]c(=O)c(NCc2ccc(Br)cc2)c1 [Example 19]
3000 to 30000 nM

Please answer likewise for Cc1noc(C)c1-c1c[nH]c(=O)c(NCc2nccs2)c1 [Example 30]
3000 to 30000 nM

Continue with Cc1noc(C)c1-c1c[nH]c(=O)c(NCc2ccccn2)c1 [Example 17]
300 to 3000 nM

Next up: Cc1noc(C)c1-c1c[nH]c(=O)c(Nc2ccc(Cl)cc2)c1 [Example 29]
3000 to 30000 nM

---

Target: Brd4 bromodomain 1 (BRD4(1)) (Homo sapiens, UniProt O60885)
Assay: Inhibition of tetra-acetylated histone H4 binding to BET bromodomain (HTRF/FRET)
Details: His-tagged bromodomain 200 nM, tetra-acetylated histone H4 peptide, 2 h room temperature
Measured IC50 of individual entries

Some compounds with recorded IC50:
[
  {
    "Compound": "Cc1noc(C)c1-c1c[nH]c(=O)c(Nc2ccc(C#N)cc2)c1",
    "IC50": "300 to 3000 nM"
  },
  {
    "Compound": "Cc1noc(C)c1-c1c[nH]c(=O)c(Nc2ccccc2F)c1",
    "IC50": "300 to 3000 nM"
  },
  {
    "Compound": "Cc1noc(C)c1Nc1cc(-c2c(C)noc2C)c[nH]c1=O",
    "IC50": "≤ 300 nM"
  }
]

Need IC50 of `Cc1noc(C)c1-c1c[nH]c(=O)c(NCc2ccc(Br)cc2)c1` , thanks.
300 to 3000 nM

Now give it for `Cc1noc(C)c1-c1c[nH]c(=O)c(OCc2ccc(C#N)cc2)c1` too.
300 to 3000 nM

Consider next the compound Cc1noc(C)c1-c1c[nH]c(=O)c(NC(C)c2ccccn2)c1 (stereo not drawn) in the same way.
≤ 300 nM

Record: `Cc1noc(C)c1-c1c[nH]c(=O)c(NCc2ccc(Cl)cc2)c1`
≤ 300 nM

Thanks! And `Cc1noc(C)c1-c1c[nH]c(=O)c(NCc2cnoc2)c1` ?
300 to 3000 nM

What do you have for `Cc1noc(C)c1-c1c[nH]c(=O)c(NCc2ccc(I)cc2)c1` ?
≤ 300 nM
